- Tested on: HEK-293T
- test_summary: MTS cell viability assay, HEK-293T (293T) normal cells
- Assay type: cell-based
- protocol_conditions: Homo sapiens, HEK-293T; Table 8, normal cells, preferred compounds; read-out: IC50 293T
Consider the following compounds; for each one, report its IC50.
# unit: µg/mL | format: bare number

compound CCCCCc1cc(OC(=O)CN(C)C)c2c(c1)OC1(C)CCC3C1C2C3(C)C (centres unmarked) [Compound 9m] , IC50 observed: 22.9

Entry CC12CCC3C1C(c1c(O)cc(-c4ccsc4)cc1O2)C3(C)C (centres unmarked) [Compound 3t] , IC50 reported as 16.4

---

- test_summary: MTS cell viability assay, HEK-293T (293T) normal cells
- Assay type: cell-based
- protocol_conditions: human, HEK-293T (293T) normal cells; primary viability screening, 72 hours, MTS; test concentration not stated; read-out: Cell viability in 293T (%)
Give viability at 72 h for every item shown.
API: value field is a number in %; no unit string.

viability at 72 h recorded for this compound, CCCc1cc(O)c2c(c1)OC1(C)CCC3C1C2C3(C)C (stereo not shown) , is 91

Record CCCCCc1cc(OC)c2c(c1)OC1(C)CCC3C1C2C3(C)C (stereo not shown) , field viability at 72 h: 95

The compound CCCCCc1cc(OC(C)=O)c2c(c1)OC1(C)CCC3C1C2C3(C)C (stereo not shown) showed viability at 72 h equal to 92

Short answer for CCCCCc1cc(OCc2cn(S(=O)(=O)c3ccc(C)cc3)nn2)c2c(c1)OC1(C)CCC3C1C2C3(C)C (stereo not shown) : viability at 72 h was 71

The compound CCCCCc1cc(O)c2c(c1)OC1(C)CCC3C(C)C2C31 (stereo not shown) showed viability at 72 h equal to 78

Form: compound = CCCCCc1cc(OCC)c2c(c1)OC1(C)CCC3C1C2C3(C)C (stereo not shown) ; viability at 72 h = 79

Entry under test: CCCCCc1cc(O)c2c(c1)OC1(C)CCC3C(c4ccccc4)C2C31 (stereo not shown) . Its viability at 72 h was 97

# compound CCCCCc1cc(OCCC)c2c(c1)OC1(C)CCC3C1C2C3(C)C (stereo not shown) ; its viability at 72 h = 77

In plain terms, CCCCCCc1cc(O)c2c(c1)OC1(C)CCC3C1C2C3(C)C (stereo not shown) has a documented viability at 72 h of 18

For record CCCCCCCCCCCCCc1cc(O)c2c(c1)OC1(C)CCC3C1C2C3(C)C (stereo not shown) the listed viability at 72 h is 8

GET /value?item= CCCCc1cc(O)c2c(c1)OC1(C)CCC3C1C2C3(C)C (stereo not shown) &field=viability at 72 h returns 60

get_value(item= C=CC(=O)Oc1cc(CCCCC)cc2c1C1C3C(CCC3(C)O2)C1(C)C (stereo not shown) , readout=viability at 72 h) returns 35

CCCCCCCc1cc(O)c2c(c1)OC1(C)CCC3C1C2C3(C)C (stereo not shown) yielded viability at 72 h of 11

Looking up C#CCOc1cc(CCCCC)cc2c1C1C3C(CCC3(C)O2)C1(C)C (stereo not shown) , I see its viability at 72 h listed as 75

Sure, the documented viability at 72 h for CCCCCc1cc(OC(=O)CCN2CCOCC2)c2c(c1)OC1(C)CCC3C1C2C3(C)C (stereo not shown) is 93

The compound identified as CCCCCc1cc(OC(=O)c2ccncc2)c2c(c1)OC1(C)CCC3C1C2C3(C)C (stereo not shown) registered its viability at 72 h at 91
